assay: clinical; conditions: both, human, in vivo, po, 400 mg, t1/2, Median
OBSERVATION TYPE: half-life (h)
Numbers only, in h.

Problem: I'd like to know its half-life. The compound in question is O=C(NN1C(=O)C2C3C=CC(C4CC34)C2C1=O)c1ccc(C(F)(F)F)cc1 (single isomer, unassigned) [Form I]
Result: 25.1

====

assay: clinical; details: both, human, in vivo, po, 400 mg, AUC0-τ, Mean
OBSERVATION TYPE: AUC (ng·h/mL)
Numbers only, in ng·h/mL.

Problem: I'd like to know its AUC. The molecule in question is O=C(NN1C(=O)C2C3C=CC(C4CC34)C2C1=O)c1ccc(C(F)(F)F)cc1 (single isomer, unassigned) [Form V]
Result: 20100

====

assay: clinical; details: both, human, in vivo, po, 400 mg, Cmax, Median
OBSERVATION TYPE: Cmax (ng/mL)
Numbers only, in ng/mL.

Problem: I'd like to know its Cmax. The compound in question is O=C(NN1C(=O)C2C3C=CC(C4CC34)C2C1=O)c1ccc(C(F)(F)F)cc1 (single isomer, unassigned) [Form I]
Result: 1170

====

assay: clinical; details: both, human, in vivo, po, 400 mg, Tmax, Mean
OBSERVATION TYPE: Tmax (h)
Answers are plain numbers, in h.

Problem: I'd like to know its Tmax. The compound in question is O=C(NN1C(=O)C2C3C=CC(C4CC34)C2C1=O)c1ccc(C(F)(F)F)cc1 (single isomer, unassigned) [Form V]
Result: 3.8

Just for reference, patent US12433868B2 is where these values come from.
